experimental.details: Luminescence activity assay of purified Gaussia luciferase mutants on coelenterazine derivative ZS2
Type: biochemical
Design: key: ratio of mutant luminescence intensity to wild-type Gaussia luciferase
condition: Substrate ZS2 (Table 16)
observation.type: Activity of mutant relative to wild-type Gaussia luciferase without the signal peptide
Lab note: jot down the number only; don't add units.

F26V N27Y V29N A30D V31D D32L S33R A36R T37W L40Y K180R: Gaussia luciferase mutant (protein, SIGNAL (1)..(17), Gaussia luciferase mutant) MGVKVLFALICIAVAEAKPTENNEDVYINDDLRNFRWTDYDADRGKLPGKKLPLEVLKEMEANARKAGCTRGCLICLSHIKCTPKMKKFIPGRCHTYEGDKESAQGGIGEAIVDIPEIPGFKDLEPMEQFIAQVDLCVDCTTGCLKGLANVQCSDLLKKWLPQRCATFASKIQGQVDKIRGAGGD; 0.063

Now consider the entry below.
The value of Activity of mutant relative to wild-type Gaussia luciferase without the signal peptide measured for the molecule F26L N27D V29A V31L A32D S33N T37E L40T: Gaussia luciferase mutant (protein, SIGNAL (1)..(17), Gaussia luciferase mutant) MGVKVLFALICIAVAEAKPTENNEDLDIAALDNNFAETDTDADRGKLPGKKLPLEVLKEMEANARKAGCTRGCLICLSHIKCTPKMKKFIPGRCHTYEGDKESAQGGIGEAIVDIPEIPGFKDLEPMEQFIAQVDLCVDCTTGCLKGLANVQCSDLLKKWLPQRCATFASKIQGQVDKIKGAGGD turned out to be 0.191
